Target: T1, apelin receptor (AGTRL1) on CHO-K1 cells (UniProt P35414 1-380, limits assumed)
T1 sequence (looked up): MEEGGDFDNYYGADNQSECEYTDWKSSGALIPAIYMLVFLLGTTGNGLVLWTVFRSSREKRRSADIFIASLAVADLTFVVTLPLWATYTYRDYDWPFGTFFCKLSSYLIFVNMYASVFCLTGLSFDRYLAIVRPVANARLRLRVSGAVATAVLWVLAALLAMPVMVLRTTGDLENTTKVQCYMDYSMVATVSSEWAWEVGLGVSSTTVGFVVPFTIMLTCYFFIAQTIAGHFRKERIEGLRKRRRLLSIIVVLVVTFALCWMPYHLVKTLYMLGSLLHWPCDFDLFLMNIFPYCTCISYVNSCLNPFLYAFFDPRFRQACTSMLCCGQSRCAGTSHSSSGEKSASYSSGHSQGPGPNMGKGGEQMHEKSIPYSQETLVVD
Test: cell-based or functional assay
MEASUREMENT NAME: cAMP EC50 (nM) Exp. 2

BINDER: ELA-L (Fc fusion) DKTHTSPPSPAPEAAGGPSVFLFPPKPKDTLMISRTPEVTCVVVDVSHEDPEVKFNWYVDGVEVHNAKTKPREEQYNSTYRVVSVLTVLHQDWLNGKEYKCKVSNKALPAPIEKTISKAKGQPREPQVYTLPPSREEMTKNQVNLTCLVKGFYPSDIAVEWESNGQPENNYKTTPPVLDSDGSFFLNSTLTVDKSRWQQGNVFSCSVMHEALHNHYTQKSLSLSPGKGGGGSGGGGSGGGGSKLRKHNCATRRCMPLHSRVPFP
MEASUREMENT NAME: cAMP EC50 (nM) Exp. 2
VALUE OBSERVED: 2.8 nM
